Exercise: for every item that follows, state its recorded TGI.
Tested on: MOLT-4 leukemia
experiment.notes: NCI tumour cell line growth inhibition, 48 h

Some solved entries appear below for comparison.
# compound, TGI
measured = [
    ("Nc1nc(Cl)c(N)c(NCC2(CO)CCC2)n1", "> 100 µM"),
    ("Cc1oc2c(c1C)S(=O)(=O)C(C#N)=C(c1ccccc1)N2", "> 100 µM"),
    ("Cn1c([N+](=O)[O-])cnc1/C=C1\\Oc2ccccc2C1=O", "0.758 µM"),
]

Give me TGI for each of these compounds, listed below.
1. COC(=O)c1cc2c(o1)Sc1ccccc1NC2=O
2. c1ccc2c(c1)CCC/C2=N\OCC1CO1 (stereo unspecified)
3. COc1cc(OC)cc(C2CC(=O)Nc3c2c(C)nn3-c2nc3ccccc3[nH]2)c1 (stereo unspecified)
4. CO[C@H]1c2cccc3cccc(c23)[C@@H]1n1[nH]c(=O)n(C(C)(C)C)c1=O
5. O=C1NC(=O)C(Cc2ccccc2)(c2cccnc2)N1 (stereo unspecified)
6. COc1ccc2c(c1)/C(=C\c1c(C)nc3n1CCS3)C(=O)N2

Key:
1: > 100 µM; 2: > 100 µM; 3: 0.434 µM; 4: > 100 µM; 5: > 100 µM; 6: > 100 µM

Value sought for every listed compound: TGI.
1. COc1cccc(OC/C(N=Cc2cccnc2)=N/NC(=O)c2ccncc2)c1
2. CCOC(=O)C(SCCO)C(C(=O)OCC)n1cnc2c(N)ncnc21 (stereo unspecified)

Key:
> 100 µM
20 µM

---

Provide the recorded TGI for the entries that follow.
Tested on: DLD-1 colon
experiment.notes: NCI tumour cell line growth inhibition, 48 h

Example entries and their recorded answers appear below.
# compound, TGI
measured = [
    ("c1ccc2c(c1)CCC/C2=N\\OCC1CO1 (stereo unspecified)", "> 100 µM"),
    ("CC[C@@H]1OC2(C)CC(S(=O)(=O)c3ccccc3O)CC1O2 (stereo partly specified)", "> 100 µM"),
]

// batch mode: one TGI value per listed entry
1. O=C(Nc1cc(Cl)c(Cl)cc1Cl)C(=O)C1C=CCS1(=O)=O (stereo unspecified)
2. O=C(/C=C/c1ccc([N+](=O)[O-])o1)N1CCN(Cc2ccccc2)CC1
3. CCOC(=O)NC(=O)c1cn(CC(=O)NCC(=O)NCC(=O)NCCCN2CCN(CCCNC(=O)CNC(=O)CNC(=O)Cn3cc(C(=O)NC(=O)OCC)c(=O)[nH]c3=O)CC2)c(=O)[nH]c1=O
4. O/N=C(\c1ccccc1)N1CCCCC1

Key:
1: > 100 µM; 2: 19.7 µM; 3: > 100 µM; 4: > 100 µM

---

For each record, write down the corresponding TGI.
Test system: KM12 colon
experiment.notes: NCI tumour cell line growth inhibition, 48 h
Where a SMILES comes first, the peptide text is derived from it. [ ]: non-standard residue; d: D form. Ac5c = NC1(C(=O)O)CCCC1

# compound, result
measured = [
    ("CCOC(=O)Nc1nc2ccc(Cn3cccc3)cc2[nH]1", "> 100 µM"),
    ("O=C1NC(=O)C(Cc2ccccc2)(c2cccnc2)N1 (configuration not stated)", "> 100 µM"),
    ("COc1cc(/C=C/C(=O)CC(=O)/C=C/c2cc(OC)c(OC)c(OC)c2)cc(OC)c1OC", "63 µM"),
    ("NC1(C(=O)NC2(C(=O)O)CCCC2)CCCC1 (H-[Ac5c]-[Ac5c]-OH)", "> 100 µM"),
    ("CC(=O)CC(=O)Nc1ccc2ccccc2c1", "> 100 µM"),
]

Items follow; give TGI for each.
1. Cc1nc2sc(C(=O)Nc3cccc(Cl)c3C)c(N)c2cc1C(=O)/C=C/c1ccccc1
2. c1ccc2c(c1)CCC/C2=N\OCC1CO1 (configuration not stated)
3. CC12CCC3[C@@H](CC3(C)C)C(O)(CCC1=O)C2 (some centres not stated)
4. Cc1cc([C@H](C#N)c2nc3ccccc3[nH]2)nc(Cl)n1
5. CC(=O)N1C(=O)CC2(N=C(C)CC2=O)c2ccccc21 (configuration not stated)
6. O=c1c2cc(Cl)ccc2oc2ccc(OCCCCCN3CCCCC3)cc12

Key:
["1.5 µM", "> 100 µM", "> 100 µM", "28.1 µM", "> 10 µM", "9 µM"]

# map each compound to its TGI
1. COC(=O)c1cc2c(o1)Sc1ccccc1NC2=O
2. CCOC(=O)C(C(=O)OCC)=C1NC2(c3ccccc3Nc3ccc(C)cc32)C(C#N)S1 (configuration not stated)
3. COc1nc(C)nc2sc3c(c12)CCCC3
4. CSc1nc(C)c2c(n1)SCC2

Key:
["> 100 µM", "41.3 µM", "> 100 µM", "> 10 µM"]

Parameter requested: TGI. Apply to each item below.
1. CCOC(=O)c1cc(C#N)c(=O)n(/N=C(\C)c2ccncc2)c1O
2. CC(O)c1cccc(NCc2c3ccccc3c(=O)n3c2oc2ccccc23)c1 (configuration not stated)
3. COCC(N=CN1CCCc2ccccc2[C@@H]1CCCCl)C(C)(C)C (some centres not stated)
4. NC(=O)C(=Cc1ccc(C(O)P(=O)(O)O)cc1)C(N)=O (configuration not stated)
5. O=C(Nc1cc(Cl)c(Cl)cc1Cl)C(=O)C1C=CCS1(=O)=O (configuration not stated)
6. C=C1C(=O)C23CC1C[C@H](OC(C)=O)[C@H]2C1(C)C(OC(C)=O)C[C@H](O)C(C)(C)[C@H]1C(=O)[C@@H]3OC(C)=O (some centres not stated)
7. C/C1=C/C(C)CC(C)OC(=O)C(C)NC(=O)C(Cc2ccc(O)c(I)c2)N(C)C(=O)CNC(=O)C(C)C1 (configuration not stated)

Key:
1: > 100 µM; 2: > 100 µM; 3: 20.3 µM; 4: > 100 µM; 5: > 100 µM; 6: 23.8 µM; 7: > 100 µM

---

Tested on: SNB-19 CNS
experiment.notes: NCI tumour cell line growth inhibition, 48 h
readout.label: GI50

# molecule, GI50
rows = [
    ("C=C1C(=O)O[C@H]2[C@H]1CC/C(CNC(=O)c1cc3cc(OC)ccc3[nH]1)=C\\CC[C@@]1(C)O[C@@H]21", "7.94 µM"),
    ("CC12OC(c3ccccc3)=CC(c3ccc(Cl)cc3)=C1C(c1ccccc1)=CC2=O (stereo not given)", "> 100 µM"),
    ("ClCc1cccc(Cn2cnc3c(NC45CC6CC(CC(C6)C4)C5)ncnc32)c1", "17.2 µM"),
    ("CCOC(=O)C(N)C[S][Sn]([CH3])([CH3])[Cl] (stereo not given)", "> 100 µM"),
]

Exercise: Fill blank: measured GI50 of the molecule "O=C1Nc2ccc(C(=O)c3ccco3)cc2/C1=C/c1cc(Cl)c(O)c(Cl)c1" is ____.
Key: 8.52 µM

---

For each entry below, report its TGI value.
System: MALME-3M melanoma
experiment.notes: NCI tumour cell line growth inhibition, 48 h
Answers are plain numbers, in µM.

# compound, TGI [µM]
measured = [
    ("CC(=O)C(I(OS(=O)(=O)c1ccc(C)cc1)c1ccccc1)=P(c1ccccc1)(c1ccccc1)c1ccccc1", 30),
]

Exercise: Look up TGI for this compound: C=C1C(=O)OC2/C=C(\CO)C3OC3C3OC3(C)CC(OC(=O)/C(=C/C)CO)C12 (stereo not given)
Key: 68.6

---

Tested on: M14 melanoma
experiment.notes: NCI tumour cell line growth inhibition, 48 h
readout.label: TGI

Worked cases, answers included:
# molecule, readout.label, result
data = [
    ("CC12CCC3[C@@H](CC3(C)C)C(O)(CCC1=O)C2 (some centres undefined)", "TGI", "> 100 µM"),
    ("Cc1csc2nc3c(cnn3C)c(=S)n12", "TGI", "> 100 µM"),
    ("COc1ccc(NC(=O)C(=O)C(C(=O)c2ccccc2)C2OC(=O)c3ccccc32)c([N+](=O)[O-])c1 (centres undefined)", "TGI", "> 100 µM"),
    ("C=C1C(=O)OC2/C=C(\\CO)C3OC3C3OC3(C)CC(OC(=O)/C(=C/C)CO)C12 (centres undefined)", "TGI", "> 100 µM"),
    ("CC1=C(C(=O)Nc2ccccc2C)C(c2ccc(Cl)c(Cl)c2)C(C(=O)Nc2ccccc2C)=C(C)N1", "TGI", "35.3 µM"),
    ("O=S(=O)(N/N=C/c1ccc(/C=N/NS(=O)(=O)c2ccccc2)cc1)c1ccccc1", "TGI", "> 100 µM"),
]

# map each molecule to its TGI
1. CC(=O)O[C@H]1CC[C@H]2[C@@H]3CCC4C(C)=NNC(=O)C4[C@H]3CC[C@]12C (some centres undefined)
2. Cc1ccc2c(c1)C(=O)/C(=N/Nc1ccc(Cl)cc1)CCO2
3. C=C1C(=O)O[C@H]2[C@H]1CC/C(CNC(=O)c1cc3cc(OC)ccc3[nH]1)=C\CC[C@@]1(C)O[C@@H]21

Key:
1: > 100 µM; 2: > 100 µM; 3: 3.54 µM
